The reported measurements were obtained from patent US20240327502A1.

# experimental.system: T1, Processed stabilized hMPV PreF trimer (115BV) (human metapneumovirus, strain B2)
# T1 construct: also called Processed hMPV PreF trimer; processed PreF
# experiment.description: BLI, ratio to unprocessed PreF trimer
Hi there, I'd appreciate the recorded processed/unprocessed PreF trimer binding ratio for every entry that follows.
Numbers only.

Some binders with known processed/unprocessed PreF trimer binding ratio results, for comparison:
>  <binder>
M4F8 (antibody, V domains shown, IgG) VH: QVQLVQSGPEVKKPGASVKISCKASEYTFTNHYLHWVRQAPGQGLEWLGIINPTGGSTYYAGDFQGRVTLTRDASTTTVYMELSSVKSEDTAIYYCARDRGMRYFDYWGQGTLVTVSS VL: QSVLTQPPSVSGAPGQRVSISCTGISSNIGATYDVHWYQQLPGTAPKLLIYGNNNRPSGVPDRFSGSKSGTSASLAITGLQAEDEAVYYCQSYDSVLSGSVIFGGGTILTVL

>  <observed.result>
0.22

$$$$
>  <binder>
M2A06 (antibody, V domains shown, IgG) VH: QVQLVQSGAEVKKPGASVKISCKASGYSFSNYYIQWVRQAPGQGLEWLGIINPSGGSTDYAQKFEGRVSMTRDTSTNTVYMEMSSLRSEDTASYYCVRSLANGSGSPWGQGTLVIVSS VL: DIQMTQSPSTLSASVGDRVTITCRASQSISSRLAWYQQKPGKAPNLLLYDASRSESGVPSRFSGSGSGTEFTLTISSLQPDDVATYYCQHYSIYSRWTFGQGTKVEIK

>  <observed.result>
0.22

$$$$
>  <binder>
M3D08 (antibody, V domains shown, IgG) VH: QVQLQESGPGLVKPSETLSLTCSVSGVSISSHYWSWIRQPAGKGLEWIGRLYTSGTTTYNPSLNSRVTMSVDTTNNRLSLRLTSVTAADTAVYYCARDVRLTVFGALHNWFDPWGQGILVTVSS VL: DIQMTQSPSSLSASVGDRVTITCRASQSIGTHLNWYQQQRGRAPKLLVYAASGLQSGVPSRFSGSGSGTYFTLTISSLQPEDFATYYCQQSYSTPSITFGQGSRLDIK

>  <observed.result>
0.17

$$$$
>  <binder>
M4A10 (antibody, V domains shown, IgG) VH: QVQLVQSGAEVKKPGASVKVSCKASGYTFNGHYLHWVRQAPGQGLEWMGWINPNSGGTDYAQRFQGRVTMTRGTSISTAYMELSRLTSDDTAVYFCARDNFGFWSASSGRHNWLDSWGQGTLVIVSS VL: NFMLTQPHSVSESPGKTVTISCTRSTGNIASNYVQWYQQRPGSSPTTVIYEDNQRPSAVPDRFSGSIDSSSNSASLTVSGLRTEDEADYYCQSYDSGHHVVFGGGTKLTVL

>  <observed.result>
0.71

$$$$

IN: Field request: processed/unprocessed PreF trimer binding ratio | item: M2D01 (antibody, V domains shown, IgG) VH: QVQLQESGPGVVKPSETLSLTCTVSRGAITDYHLNWIRQPPGKGLEWIGYISSSGSTNYNPSLKSRVTISQVMSGTQFSLKLTSMSAADTALYYCASSSGRYWGGALDLWGQGTQVIVSS VL: DIVMTQSPDSLAVPLGERATINCKSSQSLLYTSNNKNSLAWYQQKPGQPPKLLLFWASTREFRVPDRFSGSGSGTDFTLTISSLQAEDVAVYYCQQYYTAPYTFGPGTKLEIK
OUT: 0.19
